Cited source for all entries: ChEMBL document CHEMBL1201862

Tested on: SF-539
Assay: NCI tumour cell line growth inhibition, 48 h
Calls of active or inactive are those of the source. No stated cut-off is given here; in the data, active = GI50 up to about 1.1 µM and inactive = higher.
Respond with a class label; see 1 (yes) (active), 0 (no) (inactive)

[
  {
    "molecule": "CC1(C)S[C@@H]2[C@H](N3C(=O)c4ccccc4C3=O)CN2[C@H]1NC(=O)N[C@@H]1N2C[C@@H](N3C(=O)c4ccccc4C3=O)[C@H]2SC1(C)C",
    "tgt": "SF-539",
    "assignedCategory": "0 (no)"
  },
  {
    "molecule": "CCCC(=O)[O-].[Na+] [SODIUM BUTYRATE]",
    "tgt": "SF-539",
    "assignedCategory": "0 (no)"
  },
  {
    "molecule": "Nc1nc(Cl)c(CO)c(NCC2(CO)CCC2)n1",
    "tgt": "SF-539",
    "assignedCategory": "0 (no)"
  },
  {
    "molecule": "NC(=O)C[C@H](NC(=O)C1(NC(=O)[C@H](Cc2ccc(CP(=O)(O)O)cc2)NC(=O)C(=O)O)CCCCC1)C(=O)NCCCc1cccc2ccccc12",
    "tgt": "SF-539",
    "assignedCategory": "0 (no)"
  },
  {
    "molecule": "O=C(/C=C/c1ccc2ccccc2c1)NCc1ccc(C(=O)NCc2ccccc2)cc1",
    "tgt": "SF-539",
    "assignedCategory": "0 (no)"
  },
  {
    "molecule": "Cc1cccc2c1C(=O)C1(Cc3ccccc3C1=O)C2 (configuration not stated)",
    "tgt": "SF-539",
    "assignedCategory": "0 (no)"
  }
]

Task: Kindly provide the recorded test outcome for the following molecule: C=CCO[C@]1(CC=C)C(=O)C(=O)OC1C1COC(C)(C)O1 (some centres not stated)
Result: 0 (no)

Task: In this assay, the call recorded for O=C(NN1C(=O)CSC1c1ccco1)c1ccncc1 (configuration not stated) was what?
Result: 0 (no)

Task: Recorded call for "c1ccc(-c2nc3ccccc3n3nnnc23)cc1" ?
Result: 0 (no)

Task: # fetch the recorded call for "C=CCOC(=O)/C(=C\c1ccc(OC)c(OC)c1)c1ccc(OC)c(OC)c1" here
Result: 0 (no)

Task: Can you look up the reported call for "CCOC(=O)c1c2c(n(Cc3ccccc3)c1C)C(=O)C(=O)c1ccccc1-2" for me?
Result: 1 (yes)

Task: Dear colleague, could you share the recorded outcome for COc1cccc(NC(=O)CC(=O)N2N=C(C)C(/N=N/c3ccc(S(=O)(=O)CCOS(=O)(=O)O)cc3)C2=O)c1 (configuration not stated) when you have a moment?
Result: 0 (no)

Task: How was CC1=CC2C(C(C)C)CC1C1C(=O)OC(=O)C21 (configuration not stated) classified in this test?
Result: 0 (no)

Task: # lookup: test call for NNC(=O)N/N=C1/C(=O)N(c2ccc(Cl)c(Cl)c2)C(=O)C(=O)C1c1nc2ccccc2o1 (configuration not stated)
Result: 0 (no)

Task: Called result for "O=C(Cn1cc(-c2ccccc2)nn1)NC1CCCC1"
Result: 0 (no)

Task: What was the test verdict on N=C(N)SC1c2ccccc2-c2cc([N+](=O)[O-])ccc21 (configuration not stated) ?
Result: 0 (no)

Task: Test call, this molecule: CSc1ccc(C2C(Cl)C(=O)N2NC(=O)c2c(Cl)c(Cl)c(Cl)c(Cl)c2-c2nc3ccccc3[nH]2)cc1 (configuration not stated)
Result: 0 (no)

Task: Name the outcome recorded for "O=Cc1ccc2c(c1)CC1(C2)Cc2ccc(C=O)cc2C1" in the assay.
Result: 0 (no)

Task: Hi, sorry to bother you, what did the test record for "Cc1oc2c(c1C(=O)c1ccccc1)C(=O)c1ccccc1C2=O" ?
Result: 0 (no)

Task: Write down the call the test reported for this molecule. Item: "O=C(CO)CC(=O)C(=O)Nc1nc([N+](=O)[O-])cs1"
Result: 0 (no)

Task: # outcome recorded in this test, key = C=CC1(C)/C(=N\O)C(C)(CC)C(=O)N1O (configuration not stated)
Result: 0 (no)

Task: For "O=C(Nc1nc2ccc([N+](=O)[O-])cc2s1)c1cc([N+](=O)[O-])ccc1Cl" , which call appears in the assay record?
Result: 0 (no)
